Origin of the recorded values: ChEMBL document CHEMBL5375981

test system: L02; assay: Antiproliferative activity against human L02 cells harboring minimal integrin alphaVbeta3 expression assessed as inhibition of cell growth incubated for 72 hrs by CCK-8 assay; format: functional, cell-based; details: L02, 72 h
Reported IC50 is given for each of the following molecules.

smiles: Cc1ncsc1-c1ccc([C@H](C)NC(=O)[C@@H]2C[C@@H](OC(=O)OCCSSCCOC(=O)CCC(=O)NCCCC[C@@H]3NC(=O)[C@H](CC(=O)O)NC(=O)CNC(=O)[C@H](CCCNC(=N)N)NC(=O)[C@@H](N)CSSC[C@@H](C(=O)O)NC(=O)[C@H](CC(=O)O)NC(=O)[C@@H]4CCCN4C(=O)CNC3=O)CN2C(=O)[C@@H](NC(=O)COCCOCCOCCNC(=O)C[C@@H]2N=C(c3ccc(Cl)cc3)c3c(sc(C)c3C)-n3c(C)nnc32)C(C)(C)C)cc1
IC50 / nM: 1500

smiles: Cc1ncsc1-c1ccc([C@H](C)NC(=O)[C@@H]2C[C@@H](OC(=O)OCCSSCCOC(=O)CCC(=O)N[C@@H](CCCNC(=N)N)C(=O)NCC(=O)N[C@@H](CC(=O)O)C(=O)O)CN2C(=O)[C@@H](NC(=O)COCCOCCOCCNC(=O)C[C@@H]2N=C(c3ccc(Cl)cc3)c3c(sc(C)c3C)-n3c(C)nnc32)C(C)(C)C)cc1
IC50 / nM: 980

smiles: Cc1ncsc1-c1ccc([C@H](C)NC(=O)[C@@H]2C[C@@H](O)CN2C(=O)[C@@H](NC(=O)COCCOCCOCCNC(=O)C[C@@H]2N=C(c3ccc(Cl)cc3)c3c(sc(C)c3C)-n3c(C)nnc32)C(C)(C)C)cc1
IC50 / nM: 400

---

Recorded solubility at 0.5 h values for a group of compounds are listed next.
assay: Solubility in distilled water measured for 30 mins by ultraviolet spectrophotometry analysis; format: physicochemical
measured.metric: solubility at 0.5 h

smiles: Cc1ncsc1-c1ccc([C@H](C)NC(=O)[C@@H]2C[C@@H](OC(=O)CCC(=O)N[C@@H](Cc3c[nH]cn3)C(=O)N[C@@H](Cc3c[nH]cn3)C(=O)NCC(=O)N[C@@H](CCCNC(=N)N)C(=O)NCC(=O)N[C@@H](CC(=O)O)C(=O)O)CN2C(=O)[C@@H](NC(=O)COCCOCCOCCNC(=O)C[C@@H]2N=C(c3ccc(Cl)cc3)c3c(sc(C)c3C)-n3c(C)nnc32)C(C)(C)C)cc1
measured.metric: solubility at 0.5 h
meas.value: > 10 mM
--
smiles: Cc1ncsc1-c1ccc([C@H](C)NC(=O)[C@@H]2C[C@@H](OC(=O)OCCSSCCOC(=O)CCC(=O)N[C@@H](CCCNC(=N)N)C(=O)NCC(=O)N[C@@H](CC(=O)O)C(=O)O)CN2C(=O)[C@@H](NC(=O)COCCOCCOCCNC(=O)C[C@@H]2N=C(c3ccc(Cl)cc3)c3c(sc(C)c3C)-n3c(C)nnc32)C(C)(C)C)cc1
measured.metric: solubility at 0.5 h
meas.value: > 10 mM
--
smiles: Cc1ncsc1-c1ccc([C@H](C)NC(=O)[C@@H]2C[C@@H](OC(=O)OCCSSCCOC(=O)CCC(=O)NCCCC[C@@H]3NC(=O)[C@H](CC(=O)O)NC(=O)CNC(=O)[C@H](CCCNC(=N)N)NC(=O)[C@@H](N)CSSC[C@@H](C(=O)O)NC(=O)[C@H](CC(=O)O)NC(=O)[C@@H]4CCCN4C(=O)CNC3=O)CN2C(=O)[C@@H](NC(=O)COCCOCCOCCNC(=O)C[C@@H]2N=C(c3ccc(Cl)cc3)c3c(sc(C)c3C)-n3c(C)nnc32)C(C)(C)C)cc1
measured.metric: solubility at 0.5 h
meas.value: > 10 mM
--
smiles: Cc1ncsc1-c1ccc([C@H](C)NC(=O)[C@@H]2C[C@@H](O)CN2C(=O)[C@@H](NC(=O)COCCOCCOCCNC(=O)C[C@@H]2N=C(c3ccc(Cl)cc3)c3c(sc(C)c3C)-n3c(C)nnc32)C(C)(C)C)cc1
measured.metric: solubility at 0.5 h
meas.value: 29.5 mM
